Provenance of the data: ChEMBL document CHEMBL3991601

# TARGET_SYSTEM: Ribosomal protein S6 kinase alpha-4 (Homo sapiens); note: in the data inactive means no Kd found up to 30 µM
# Sequence (O75676 whole entry): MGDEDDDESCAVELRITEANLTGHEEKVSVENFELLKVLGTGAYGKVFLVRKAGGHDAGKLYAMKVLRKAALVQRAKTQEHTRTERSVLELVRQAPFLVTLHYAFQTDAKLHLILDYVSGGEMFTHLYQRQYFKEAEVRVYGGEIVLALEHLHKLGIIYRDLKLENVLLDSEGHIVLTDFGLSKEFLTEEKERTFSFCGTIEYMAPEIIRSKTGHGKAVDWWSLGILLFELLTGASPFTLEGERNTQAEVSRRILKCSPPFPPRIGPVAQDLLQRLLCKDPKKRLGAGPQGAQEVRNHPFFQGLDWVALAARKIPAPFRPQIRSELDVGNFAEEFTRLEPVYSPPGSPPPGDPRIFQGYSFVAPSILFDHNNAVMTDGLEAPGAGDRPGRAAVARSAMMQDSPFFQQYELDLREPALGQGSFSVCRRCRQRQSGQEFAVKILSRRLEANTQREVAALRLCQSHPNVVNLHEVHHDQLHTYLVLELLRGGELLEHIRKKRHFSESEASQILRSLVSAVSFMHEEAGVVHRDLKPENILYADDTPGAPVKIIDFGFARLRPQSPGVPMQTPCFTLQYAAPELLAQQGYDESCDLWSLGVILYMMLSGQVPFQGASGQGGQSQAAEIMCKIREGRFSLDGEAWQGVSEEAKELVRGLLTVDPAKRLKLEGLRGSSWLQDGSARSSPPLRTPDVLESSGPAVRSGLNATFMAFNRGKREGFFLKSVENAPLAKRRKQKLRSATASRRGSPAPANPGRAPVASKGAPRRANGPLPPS
Calls of active or inactive are those of the source.
Your answer must be one of the following: Yes (active), No (inactive)

Use these answered entries as a reference point.
{"MOLECULE": "COC(=O)[C@@]1(O)C[C@H]2O[C@]1(C)n1c3ccccc3c3c4c(c5c6ccccc6n2c5c31)C(=O)NC4 [K-252A]", "GROUP_LABEL": "Yes"}
{"MOLECULE": "CCS(=O)(=O)N1CC(CC#N)(n2cc(-c3ncnc4[nH]ccc34)cn2)C1 [BARICITINIB]", "GROUP_LABEL": "No"}
{"MOLECULE": "CNC(=O)c1ccc(C)c(-n2c(C)cc(OCc3ccc(F)cc3F)c(Br)c2=O)c1 [PH-797804]", "GROUP_LABEL": "No"}
{"MOLECULE": "CCCS(=O)(=O)Nc1ccc(F)c(C(=O)c2c[nH]c3ncc(-c4ccc(Cl)cc4)cc23)c1F [VEMURAFENIB]", "GROUP_LABEL": "No"}
{"MOLECULE": "CNC(=O)c1ccc(-c2cnc3ncc(Cc4ccc5ncccc5c4)n3n2)cc1F [CAPMATINIB]", "GROUP_LABEL": "No"}

Data request: Could you check what this test reported for CCn1c(=O)c(-c2cc[nH]n2)cc2c(C)nc(N)nc21 [VOXTALISIB] ?
Data returned: No

Data request: Identify the outcome logged in this assay for the molecule shown: Cc1ccc(-n2nc(C(C)(C)C)cc2NC(=O)NCc2cc(F)ccc2Oc2ccc3c(cnn3CCO)c2)cc1 [PEXMETINIB]
Data returned: No

Data request: Which result was noted for this molecule in the test: Cc1ccc(S(=O)(=O)Nc2nc3ccccc3nc2Nc2ccc3nsnc3c2)cc1
Data returned: No

###

# TARGET_SYSTEM: Dual specificity tyrosine-phosphorylation-regulated kinase 1B (Homo sapiens, UniProt Q9Y463); note: in the data inactive means no Kd found up to 30 µM
# Sequence (Q9Y463 whole entry): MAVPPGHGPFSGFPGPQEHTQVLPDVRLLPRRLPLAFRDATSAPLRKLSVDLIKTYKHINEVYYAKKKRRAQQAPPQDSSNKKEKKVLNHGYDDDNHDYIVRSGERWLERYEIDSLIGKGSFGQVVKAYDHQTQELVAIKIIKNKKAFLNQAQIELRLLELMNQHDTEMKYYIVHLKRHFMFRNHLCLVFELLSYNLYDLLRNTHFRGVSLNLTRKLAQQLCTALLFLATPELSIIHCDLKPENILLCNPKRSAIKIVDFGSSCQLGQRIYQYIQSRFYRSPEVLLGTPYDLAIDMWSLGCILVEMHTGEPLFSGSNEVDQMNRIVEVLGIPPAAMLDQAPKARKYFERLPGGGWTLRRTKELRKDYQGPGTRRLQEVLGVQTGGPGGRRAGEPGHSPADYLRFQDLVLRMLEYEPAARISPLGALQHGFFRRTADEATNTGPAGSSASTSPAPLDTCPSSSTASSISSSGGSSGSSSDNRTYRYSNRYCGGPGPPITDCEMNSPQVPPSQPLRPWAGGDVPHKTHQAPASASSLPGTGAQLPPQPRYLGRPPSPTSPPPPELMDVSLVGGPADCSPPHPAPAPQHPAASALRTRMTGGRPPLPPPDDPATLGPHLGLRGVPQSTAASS
The source made the active and inactive calls.
MEASURED_PROPERTY: Kd

{"COMPOUND": "Cc1ccc(NC(=O)c2ccc(CN3CC[C@H](N(C)C)C3)c(C(F)(F)F)c2)cc1Nc1nccc(-c2cncnc2)n1 [BAFETINIB]", "Kd": "> 30 µM (inactive)"}

Below: the item to evaluate.
Data request: # lookup: Kd of COC(=O)N[C@@H](C)CNc1nccc(-c2cn(C(C)C)nc2-c2cc(Cl)cc(NS(C)(=O)=O)c2F)n1 [ENCORAFENIB]
Data returned: > 30 µM (inactive)

###

# TARGET_SYSTEM: Serine/threonine-protein kinase SIK2 (Homo sapiens); note: in the data inactive means no Kd found up to 30 µM
# Sequence (Q9H0K1 whole entry): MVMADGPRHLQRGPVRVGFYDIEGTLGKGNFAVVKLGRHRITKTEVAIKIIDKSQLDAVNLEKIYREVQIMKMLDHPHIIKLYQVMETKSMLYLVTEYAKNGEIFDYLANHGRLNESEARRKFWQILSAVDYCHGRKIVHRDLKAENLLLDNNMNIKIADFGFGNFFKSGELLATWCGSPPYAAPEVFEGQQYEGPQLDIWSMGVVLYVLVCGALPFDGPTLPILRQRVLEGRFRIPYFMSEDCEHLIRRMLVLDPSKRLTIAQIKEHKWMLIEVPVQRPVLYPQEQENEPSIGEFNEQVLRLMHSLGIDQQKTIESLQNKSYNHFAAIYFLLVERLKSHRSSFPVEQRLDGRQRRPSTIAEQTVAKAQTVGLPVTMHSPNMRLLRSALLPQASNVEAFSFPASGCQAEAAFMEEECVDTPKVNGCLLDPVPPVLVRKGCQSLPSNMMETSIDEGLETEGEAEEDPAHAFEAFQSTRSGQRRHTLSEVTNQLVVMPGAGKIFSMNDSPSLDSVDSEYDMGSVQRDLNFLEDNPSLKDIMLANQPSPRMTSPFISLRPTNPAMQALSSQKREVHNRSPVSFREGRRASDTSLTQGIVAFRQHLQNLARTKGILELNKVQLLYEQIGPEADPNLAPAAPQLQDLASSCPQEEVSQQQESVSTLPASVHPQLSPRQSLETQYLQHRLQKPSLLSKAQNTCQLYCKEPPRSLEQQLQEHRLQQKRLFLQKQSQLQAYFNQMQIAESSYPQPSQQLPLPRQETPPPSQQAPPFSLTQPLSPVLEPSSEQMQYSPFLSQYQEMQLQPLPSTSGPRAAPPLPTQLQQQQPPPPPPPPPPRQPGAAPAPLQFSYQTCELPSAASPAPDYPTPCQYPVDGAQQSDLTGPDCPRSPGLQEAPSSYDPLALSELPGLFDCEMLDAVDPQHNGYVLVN
The source made the active and inactive calls.
Hi! Could you answer with just one of these? active, inactive

These solved cases illustrate the format of a correct answer.
{"COMPOUND": "COC(=O)[C@@]1(O)C[C@H]2O[C@]1(C)n1c3ccccc3c3c4c(c5c6ccccc6n2c5c31)C(=O)NC4 [K-252A]", "GROUP_LABEL": "active"}
{"COMPOUND": "O=C(Nc1ccc(-c2ccnc(Nc3ccc(N4CCOCC4)cc3)n2)cc1)C1CCCN1 (configuration not stated)", "GROUP_LABEL": "active"}

Data request: Dear all, I need the recorded test outcome for CCN1CCN(Cc2ccc(-c3cc4c(N[C@H](C)c5ccccc5)ncnc4[nH]3)cc2)CC1 , thank you.
Data returned: active

Data request: Identify the outcome logged in this assay for the compound shown: Cc1ccc(NC(=O)c2ccc(CN3CC[C@H](N(C)C)C3)c(C(F)(F)F)c2)cc1Nc1nccc(-c2cncnc2)n1
Data returned: inactive

Data request: Query: recorded result category for O=C1NC(=O)/C(=C/c2ccc3nccc(-c4ccncc4)c3c2)S1 in this test
Data returned: inactive

Data request: What is the recorded call for this compound in the test? Cc1c(F)cc(C(=O)NC2CC2)cc1-c1ccc(C(=O)NCC(C)(C)C)cn1
Data returned: inactive

###

# TARGET_SYSTEM: Tyrosine-protein kinase JAK1 (Homo sapiens); note: in the data inactive means no Kd found up to 30 µM
# Sequence (P23458 whole entry): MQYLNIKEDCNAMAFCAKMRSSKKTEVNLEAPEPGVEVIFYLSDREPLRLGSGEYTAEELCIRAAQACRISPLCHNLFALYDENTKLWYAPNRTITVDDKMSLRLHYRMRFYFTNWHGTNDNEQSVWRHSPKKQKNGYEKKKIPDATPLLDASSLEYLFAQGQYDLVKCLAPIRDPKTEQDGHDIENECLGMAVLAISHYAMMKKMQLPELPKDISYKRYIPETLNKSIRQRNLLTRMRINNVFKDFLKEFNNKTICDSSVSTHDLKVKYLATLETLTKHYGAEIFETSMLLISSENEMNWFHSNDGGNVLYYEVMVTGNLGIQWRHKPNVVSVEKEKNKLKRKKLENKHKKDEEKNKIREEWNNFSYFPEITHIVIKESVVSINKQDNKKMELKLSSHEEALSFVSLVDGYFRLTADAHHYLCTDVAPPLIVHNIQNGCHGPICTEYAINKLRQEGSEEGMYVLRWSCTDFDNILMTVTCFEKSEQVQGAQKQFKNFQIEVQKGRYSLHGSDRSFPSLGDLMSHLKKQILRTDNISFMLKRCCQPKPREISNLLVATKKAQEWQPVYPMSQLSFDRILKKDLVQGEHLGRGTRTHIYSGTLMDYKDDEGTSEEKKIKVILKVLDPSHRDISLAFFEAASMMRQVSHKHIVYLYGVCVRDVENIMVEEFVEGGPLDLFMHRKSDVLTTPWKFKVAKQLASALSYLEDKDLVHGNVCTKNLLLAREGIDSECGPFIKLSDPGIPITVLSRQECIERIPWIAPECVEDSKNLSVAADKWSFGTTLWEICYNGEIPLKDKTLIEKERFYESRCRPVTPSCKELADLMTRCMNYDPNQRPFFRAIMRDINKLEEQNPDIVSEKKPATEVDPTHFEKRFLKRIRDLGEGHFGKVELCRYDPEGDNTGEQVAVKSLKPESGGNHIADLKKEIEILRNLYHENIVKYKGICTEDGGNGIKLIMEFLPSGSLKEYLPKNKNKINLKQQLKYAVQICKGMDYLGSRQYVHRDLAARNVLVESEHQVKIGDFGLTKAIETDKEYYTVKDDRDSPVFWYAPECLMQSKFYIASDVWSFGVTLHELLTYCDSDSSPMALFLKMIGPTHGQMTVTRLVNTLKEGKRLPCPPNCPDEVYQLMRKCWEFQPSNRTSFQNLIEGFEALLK
The source made the active and inactive calls.
Output constraint: value belongs to active, inactive

{"MOLECULE": "CC[C@@H]1C(=O)N(C)c2cnc(Nc3ccc(C(=O)N[C@H]4CC[C@H](N5CCN(CC6CC6)CC5)CC4)cc3OC)nc2N1C(C)C", "GROUP_LABEL": "inactive"}

Data request: Could you please tell me the result logged for COC(=O)[C@@]1(O)C[C@H]2O[C@]1(C)n1c3ccccc3c3c4c(c5c6ccccc6n2c5c31)C(=O)NC4 [K-252A] in this assay?
Data returned: inactive

Data request: // param item: CNS(=O)(=O)Nc1nccc(Cc2c(C)c3ccc(Oc4ncccn4)cc3oc2=O)c1F ; yields the recorded call
Data returned: inactive

###

# TARGET_SYSTEM: Serine/threonine-protein kinase LATS1 (Homo sapiens, UniProt O95835); note: in the data inactive means no Kd found up to 30 µM
# Sequence (O95835 whole entry): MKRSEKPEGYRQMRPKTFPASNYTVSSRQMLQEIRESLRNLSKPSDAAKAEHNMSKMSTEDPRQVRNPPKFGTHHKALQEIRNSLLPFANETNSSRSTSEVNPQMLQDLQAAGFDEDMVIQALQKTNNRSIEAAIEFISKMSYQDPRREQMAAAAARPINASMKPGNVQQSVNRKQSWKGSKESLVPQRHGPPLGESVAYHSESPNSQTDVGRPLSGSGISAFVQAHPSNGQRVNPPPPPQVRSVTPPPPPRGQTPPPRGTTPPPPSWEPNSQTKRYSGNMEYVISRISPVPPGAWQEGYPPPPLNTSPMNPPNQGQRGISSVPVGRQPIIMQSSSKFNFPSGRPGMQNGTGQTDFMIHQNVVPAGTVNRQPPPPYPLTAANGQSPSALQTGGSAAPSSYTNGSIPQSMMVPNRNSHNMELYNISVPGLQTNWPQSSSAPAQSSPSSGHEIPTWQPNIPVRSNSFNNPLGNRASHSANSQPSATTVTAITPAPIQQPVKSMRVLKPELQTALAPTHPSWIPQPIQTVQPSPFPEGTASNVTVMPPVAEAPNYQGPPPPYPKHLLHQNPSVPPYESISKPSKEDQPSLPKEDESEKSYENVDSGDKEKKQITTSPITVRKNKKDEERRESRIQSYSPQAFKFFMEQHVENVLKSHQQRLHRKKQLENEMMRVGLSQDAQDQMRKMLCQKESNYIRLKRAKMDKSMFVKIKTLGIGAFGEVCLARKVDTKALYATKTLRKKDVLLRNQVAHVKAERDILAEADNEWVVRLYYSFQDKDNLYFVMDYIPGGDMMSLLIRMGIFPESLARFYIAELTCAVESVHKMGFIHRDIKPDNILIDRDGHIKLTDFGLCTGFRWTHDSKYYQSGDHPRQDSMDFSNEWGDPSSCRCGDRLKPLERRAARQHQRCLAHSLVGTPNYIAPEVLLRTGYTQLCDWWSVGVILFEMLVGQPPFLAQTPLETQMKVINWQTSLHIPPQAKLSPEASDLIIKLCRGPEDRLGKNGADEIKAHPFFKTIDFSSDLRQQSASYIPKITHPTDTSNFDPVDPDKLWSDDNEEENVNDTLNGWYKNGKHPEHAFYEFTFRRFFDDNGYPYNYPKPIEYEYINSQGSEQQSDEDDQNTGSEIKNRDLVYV
Active and inactive are the calls of the source.
MEASURED_PROPERTY: Kd

Solved cases (4 shown):
{"MOLECULAR_STRING": "COC(=O)N[C@@H](C)CNc1nccc(-c2cn(C(C)C)nc2-c2cc(Cl)cc(NS(C)(=O)=O)c2F)n1", "Kd": "> 30 µM (inactive)"}
{"MOLECULAR_STRING": "C[C@@H](c1ccc2nccn2c1)n1nnc2ncc(-c3cnn(C)c3)nc21", "Kd": "> 30 µM (inactive)"}
{"MOLECULAR_STRING": "COc1ccc(-c2ccc3c(N4CCOC[C@@H]4C)nc(N4CCOC[C@@H]4C)nc3n2)cc1CO", "Kd": "> 30 µM (inactive)"}
{"MOLECULAR_STRING": "CN1CCC(COc2cnc(-c3cccc(Cn4nc(-c5cccc(C#N)c5)ccc4=O)c3)nc2)CC1", "Kd": "> 30 µM (inactive)"}

Data request: // query Kd value for entry O=C1NC(=O)/C(=C/c2ccc3nccc(-c4ccncc4)c3c2)S1
Data returned: > 30 µM (inactive)

Data request: # input compound: CCS(=O)(=O)N1CC(CC#N)(n2cc(-c3ncnc4[nH]ccc34)cn2)C1 ; wanted: its Kd
Data returned: > 30 µM (inactive)

Data request: Can you look up the measured Kd of OCCn1cc(-c2cnc3nnn(Cc4ccc5ncccc5c4)c3n2)cn1 for me?
Data returned: > 30 µM (inactive)

Data request: Requested read-out: Kd. Entry: CNS(=O)(=O)Nc1nccc(Cc2c(C)c3ccc(Oc4ncccn4)cc3oc2=O)c1F
Data returned: > 30 µM (inactive)

###

# TARGET_SYSTEM: AarF domain-containing protein kinase 1 (Homo sapiens); note: in the data inactive means no Kd found up to 30 µM
# Sequence (Q86TW2 whole entry, the tested form may be a part): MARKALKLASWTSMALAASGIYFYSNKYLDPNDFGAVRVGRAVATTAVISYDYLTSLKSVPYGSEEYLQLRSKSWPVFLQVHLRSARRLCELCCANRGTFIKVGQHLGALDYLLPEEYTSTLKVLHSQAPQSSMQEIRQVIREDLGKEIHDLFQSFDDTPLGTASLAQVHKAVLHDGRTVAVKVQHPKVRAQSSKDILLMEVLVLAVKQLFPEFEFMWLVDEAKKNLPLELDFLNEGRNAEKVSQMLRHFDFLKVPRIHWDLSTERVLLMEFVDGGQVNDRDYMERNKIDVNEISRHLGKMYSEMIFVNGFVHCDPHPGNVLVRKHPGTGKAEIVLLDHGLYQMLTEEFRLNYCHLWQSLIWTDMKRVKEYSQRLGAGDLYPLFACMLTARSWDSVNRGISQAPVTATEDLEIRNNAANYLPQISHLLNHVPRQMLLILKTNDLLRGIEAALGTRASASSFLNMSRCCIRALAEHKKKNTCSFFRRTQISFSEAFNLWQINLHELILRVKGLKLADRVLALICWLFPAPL
Calls of active or inactive are those of the source.
Write down one outcome, taken from active, inactive

Please review the entries below; each comes with its answer.
{"MOLECULE": "COCCNCc1ccc(-c2cc3nccc(Oc4ccc(NC(=S)NC(=O)Cc5ccc(F)cc5)cc4F)c3s2)nc1", "GROUP_LABEL": "inactive"}
{"MOLECULE": "COC(=O)N[C@@H](C)CNc1nccc(-c2cn(C(C)C)nc2-c2cc(Cl)cc(NS(C)(=O)=O)c2F)n1", "GROUP_LABEL": "inactive"}
{"MOLECULE": "Cc1nc(N)sc1-c1ccnc(Nc2ccc(N3CCOCC3)cc2)n1", "GROUP_LABEL": "active"}

Data request: For N[C@@H]1CCCN(c2c(/C=C3\SC(=O)NC3=O)cccc2-c2ccccc2)C1 , which call appears in the assay record?
Data returned: inactive

Data request: // return assay outcome for O=C(Nc1cccc(Cl)c1)Nc1ncc(CCNc2ncnc3ccsc23)s1
Data returned: inactive

Data request: Test call for this molecule, please: Cn1cc(-c2ccc3nnc(C(F)(F)c4ccc5ncccc5c4)n3n2)cn1
Data returned: inactive

Data request: Please indicate how the test categorized O=C(Nc1ccc(-c2ccnc(Nc3ccc(N4CCOCC4)cc3)n2)cc1)C1CCCN1 (configuration not stated) .
Data returned: active

Data request: Outcome logged for CCn1c(-c2nonc2N)nc2c(C#CC(C)(C)O)ncc(OC[C@H]3CCCNC3)c21 in this assay:
Data returned: inactive

Data request: I'd appreciate the recorded outcome for C[C@@H](c1ccc2nccn2c1)n1nnc2ncc(-c3cnn(C)c3)nc21 from this test.
Data returned: inactive

Data request: Please indicate how the test categorized CNS(=O)(=O)Nc1nccc(Cc2c(C)c3ccc(Oc4ncccn4)cc3oc2=O)c1F .
Data returned: inactive

Data request: Lab log entry: Cc1cc(-c2cc(O)ccc2Cl)cc2nnc(Nc3ccc(OCCN4CCCC4)cc3)nc12 — outcome as called in the assay?
Data returned: inactive

Data request: In this assay, the call recorded for Cn1ncc(Cl)c1-c1cc(C(=O)N[C@H](CN)Cc2cccc(F)c2)sc1Cl was what?
Data returned: inactive

Data request: # outcome recorded in this test, key = CN1CCC(CNc2ccc3ncc(-c4cccc(OC(F)(F)F)c4)n3n2)CC1
Data returned: inactive
